system: human thrombocytes (PAF-induced aggregation); assay: inhibition of PAF-induced aggregation of human thrombocytes in vitro; format: cell-based; details: Table B; PAF 5×10^-8 M; human thrombocyte-rich plasma; read-out: PAF-Antag. IC50
Listing of recorded IC50 by entry.
Please reply with the bare figure in µM and do not write the unit itself.

Observe how each entry below is paired with its result.
compound="Cc1nnc2n1-c1sc(CCC(=O)N(CCO)CCO)cc1C(c1ccccc1Cl)=NC2 [Example 21]" measured_on="human thrombocytes (PAF-induced aggregation)" reported_property=IC50 number=2.9
compound="CCN(CC)C(=O)CCc1cc2c(s1)-n1c(nnc1C1CC1)CN=C2c1ccccc1Cl [Example 18]" measured_on="human thrombocytes (PAF-induced aggregation)" reported_property=IC50 number=0.8
compound="O=C(CCc1cc2c(s1)-n1c(Br)nnc1CN=C2c1ccccc1Cl)N1CCOCC1 [Example 9]" measured_on="human thrombocytes (PAF-induced aggregation)" reported_property=IC50 number=0.47
compound="CCN(CC)C(=O)CCc1cc2c(s1)-n1c(C)nnc1CN=C2c1ccccc1Cl [Example 5]" measured_on="human thrombocytes (PAF-induced aggregation)" reported_property=IC50 number=0.72
compound="Cc1nnc2n1-c1ccc(Cl)cc1C(c1ccccc1Cl)=NC2 [Triazolam, reference compound]" measured_on="human thrombocytes (PAF-induced aggregation)" reported_property=IC50 number=1.4
compound="Cc1nnc2n1-c1sc(C(=O)N3CCOCC3)cc1C(c1ccccc1Cl)=NC2 [Example 3]" measured_on="human thrombocytes (PAF-induced aggregation)" reported_property=IC50 number=0.71
compound="Cc1nnc2n1-c1sc(CC(=O)N3CCOCC3)cc1C(c1ccccc1Cl)=NC2 [Example 6]" measured_on="human thrombocytes (PAF-induced aggregation)" reported_property=IC50 number=1.3

Q. # input compound: Cc1nnc2n1-c1sc(CCC(=O)NC(C)C)cc1C(c1ccccc1Cl)=NC2 [Example 13] ; wanted: its IC50
A. 1.54
